Target: T1, TAM-AT1-AT2 Baz2B Q767A (Homo sapiens, UniProt Q9UIF8 721-884, Q767A)
T1 sequence: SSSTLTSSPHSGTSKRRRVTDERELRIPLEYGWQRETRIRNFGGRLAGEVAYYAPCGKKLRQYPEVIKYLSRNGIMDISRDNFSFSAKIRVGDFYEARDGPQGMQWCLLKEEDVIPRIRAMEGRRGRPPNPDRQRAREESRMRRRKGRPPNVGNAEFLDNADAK
Experiment: EMSA; EMSA: 20 mM HEPES pH 7.5, 30 mM KCl, 1 mM EDTA, 10 mM (NH4)2SO4, 1 mM DTT, 4 C, 10 nM probe; MST: same plus 0.1 ug/ml BSA, 5 nM probe, 25 C; GST-AT-hook and bromodomain EMSA as in cited refs
Details: protein: recombinant; tags: His6
READOUT NAME: Kd (µM)

BINDER: ATCAGTTCTCCGGGTTGTCAGGTCGACCAGTTGTTCCTTTGAGGT (ssDNA) [45 nt ssDNA FLP015]
MEASURED VALUE: 0.206

This collection of values is drawn from paper PMC10783490.
